Biological target: EED (1-441)-His protein (Homo sapiens, UniProt O75530)
Construct: 30 nM EED (1-441)-His protein
Sequence (O75530 whole entry): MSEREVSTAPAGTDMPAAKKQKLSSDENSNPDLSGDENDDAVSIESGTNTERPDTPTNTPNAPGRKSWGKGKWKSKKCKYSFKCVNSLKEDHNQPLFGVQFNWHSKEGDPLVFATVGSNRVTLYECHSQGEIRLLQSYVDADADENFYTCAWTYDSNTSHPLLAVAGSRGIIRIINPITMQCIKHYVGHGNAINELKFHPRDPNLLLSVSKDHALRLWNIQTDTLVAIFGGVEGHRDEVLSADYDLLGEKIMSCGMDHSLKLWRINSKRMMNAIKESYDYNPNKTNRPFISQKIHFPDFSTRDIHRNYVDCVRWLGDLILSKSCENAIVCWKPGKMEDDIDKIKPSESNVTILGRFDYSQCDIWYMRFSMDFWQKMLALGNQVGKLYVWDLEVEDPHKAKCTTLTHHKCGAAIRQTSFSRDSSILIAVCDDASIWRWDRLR
Test: EED-H3K27Me3 peptide competition binding assay by AlphaScreen
Conditions: EED-H3K27Me3 peptide competition, AlphaScreen; read-out: (a) IC50 EED Alphascreen binding Qualified
Doc: threshold 0.04 µM (exclusive). Items with IC50 beneath it return yes; others return no.

Say whether its IC50 is strictly beneath 0.04 µM. Entry: COc1cccc(Cl)c1CNc1ccc(-c2cccnc2C)c2nncn12
no

Say whether its IC50 is strictly beneath 0.04 µM. Entry: COc1cccc(F)c1CNc1ccc(-c2c[nH]nc2C)c2nncn12
no

Say whether its IC50 is strictly beneath 0.04 µM. Entry: COc1ccccc1-c1ccc(NCc2c(F)cccc2OC)n2cnnc12
no

Say whether its IC50 is strictly beneath 0.04 µM. Entry: COc1cccc(F)c1CNc1ccc(-c2cncc(OCCCS(C)(=O)=O)c2)c2nncn12
yes

Say whether its IC50 is strictly beneath 0.04 µM. Entry: COc1cccc(F)c1CNc1ccc(-c2cc(F)c(N)cc2F)c2nncn12
no

Say whether its IC50 is strictly beneath 0.04 µM. Entry: COc1cccc(F)c1CNc1ccc(-c2cn(C)nc2C(F)(F)F)c2nncn12
yes

Say whether its IC50 is strictly beneath 0.04 µM. Entry: COc1cccc(F)c1CNc1ccc(-c2c(C)ccnc2F)c2nncn12
yes

Say whether its IC50 is strictly beneath 0.04 µM. Entry: COc1cccc(F)c1CNc1ccc(-c2cnn(C3CCOCC3)c2)c2nncn12
yes

Say whether its IC50 is strictly beneath 0.04 µM. Entry: COc1cccc(F)c1CNc1ccc(-c2ccccc2C(C)C)c2nncn12
no

---

Tested on: H3K27 methylation in G401 cell
Assay: ELISA (H3K27 methylation) assay in G401 cells
Assay type: cell-based, human
Conditions: Homo sapiens, G-401, read-out: (c) IC50, ELISA Qualified
Doc: threshold 100 nM (exclusive). Items with IC50 beneath it return yes; others return no.

Say whether its IC50 is strictly beneath 100 nM. Entry: COc1cc(F)ccc1CNc1ccc(-c2ccc(S(C)(=O)=O)nc2)c2nncn12 [Example 134]
no

Say whether its IC50 is strictly beneath 100 nM. Entry: COc1ncc(-c2ccc(NCc3ccccc3OC)n3cnnc23)cn1 [Example 52]
no

Say whether its IC50 is strictly beneath 100 nM. Entry: COc1cc(F)cc(F)c1CNc1ccc(-c2ccc(CN(C)C)cc2)c2nncn12 [Example 162]
yes

Say whether its IC50 is strictly beneath 100 nM. Entry: COc1ccccc1CNc1ccc(-c2ccc(C(N)=O)cc2)c2nncn12 [Example 72]
yes

Say whether its IC50 is strictly beneath 100 nM. Entry: CN(C)Cc1ccc(-c2ccc(NCc3ccccc3F)n3cnnc23)cc1 [Example 36]
no

---

Tested on: H3K27 methylation in G401 cell
Assay: ELISA (H3K27 methylation) assay in G401 cells
Assay type: cell-based, human
Settings: Homo sapiens, G-401, H3K27 methylation ELISA, read-out: (c) IC50 ELISA Qualified
Assay readout: IC50 (nM)
Hi! Could you send only the number? It should be in nM, unit omitted.

The value of IC50 measured for the molecule COc1cccc(F)c1CNc1ccc(-c2cncc(OCCCS(C)(=O)=O)c2)c2nncn12 turned out to be 32

The value of IC50 measured for the molecule COc1cccc(F)c1CNc1ccc(-c2cnc(OC(F)F)cc2C)c2nncn12 turned out to be 18

The value of IC50 measured for the molecule COc1cccc(F)c1CNc1ccc(-c2cnc(C3CC3)cc2C)c2nncn12 turned out to be 42.3

The value of IC50 measured for the molecule COc1cccc(F)c1CNc1ccc(-c2cncnc2C(C)C)c2nncn12 turned out to be 61.3

The value of IC50 measured for the molecule CCOc1ncc(-c2ccc(NCc3c(F)cc(F)cc3OC)n3cnnc23)c(C)n1 turned out to be 36.5

The value of IC50 measured for the molecule COc1cccc(F)c1CNc1ccc(-c2cncnc2C(F)F)c2nncn12 turned out to be 4

The value of IC50 measured for the molecule COc1cccc(F)c1CNc1ccc(-c2cncc(C(C)(C)O)c2)c2nncn12 turned out to be 25.5

The value of IC50 measured for the molecule COc1cccc(F)c1CNc1ccc(-c2ccnc(CF)c2C)c2nncn12 turned out to be 6.4

The value of IC50 measured for the molecule COc1cccc(F)c1CNc1ccc(-c2cn(C(C)C)nc2C(F)(F)F)c2nncn12 turned out to be 76.8

The value of IC50 measured for the molecule COc1cccc(F)c1CNc1ccc(-c2c(Cl)ccnc2C)c2nncn12 turned out to be 16.2

The value of IC50 measured for the molecule CCc1ccccc1-c1ccc(NCc2c(F)cccc2OC)n2cnnc12 turned out to be 761

The value of IC50 measured for the molecule CCc1ncccc1-c1ccc(NCc2c(F)cc(F)cc2OC)n2cnnc12 turned out to be 86.9

The value of IC50 measured for the molecule COc1cccc(F)c1CNc1ccc(-c2cn(C)nc2C(F)(F)F)c2nncn12 turned out to be 42.7

The value of IC50 measured for the molecule COc1cccc(F)c1CNc1ccc(-c2cnc(C)cc2C)c2nncn12 turned out to be 21.4

The value of IC50 measured for the molecule COc1c(F)ccc(F)c1CNc1ccc(-c2cnc(C)nc2C)c2nncn12 turned out to be 67.6

The value of IC50 measured for the molecule COc1cc(F)cc(F)c1CNc1ccc(-c2cncnc2C)c2nncn12 turned out to be 11.9

The value of IC50 measured for the molecule COc1ncccc1CNc1ccc(-c2cccnc2C)c2nncn12 turned out to be 76.3

The value of IC50 measured for the molecule COc1cccc(F)c1CNc1ccc(-c2ccc(N3CCOCC3)nc2C)c2nncn12 turned out to be 9.9

The value of IC50 measured for the molecule COc1cccc(F)c1CNc1ccc(-c2ccc(N(C)C)nc2)c2nncn12 turned out to be 76.7

The value of IC50 measured for the molecule COc1cccc(F)c1CNc1ccc(-c2cccnc2CO)c2nncn12 turned out to be 15.5

The value of IC50 measured for the molecule COc1cccc(F)c1CNc1ccc(-c2cnccc2CO)c2nncn12 turned out to be 10.4

The value of IC50 measured for the molecule COc1cccc(F)c1CNc1ccc(-c2ccc(C(C)O)nc2)c2nncn12 (stereo not drawn) turned out to be 43.7

The value of IC50 measured for the molecule CNC(=O)c1cncc(-c2ccc(NCc3c(F)cccc3OC)n3cnnc23)c1 turned out to be 16.5

The value of IC50 measured for the molecule COc1cc(F)cc(F)c1CNc1ccc(-c2cnc(C)cc2C)c2nncn12 turned out to be 48

The value of IC50 measured for the molecule COc1cccc(F)c1CNc1ccc(-c2cnc(S(C)(=O)=O)cc2C)c2nncn12 turned out to be 25

The value of IC50 measured for the molecule COc1cccc(F)c1CNc1ccc(-c2ccnc(C)c2C)c2nncn12 turned out to be 6.6

The value of IC50 measured for the molecule COc1cccc(F)c1CNc1ccc(-c2ccc(Cl)nc2C)c2nncn12 turned out to be 15.4

The value of IC50 measured for the molecule COc1cccc(F)c1CNc1ccc(-c2cnc(Cl)cc2C)c2nncn12 turned out to be 14.6

The value of IC50 measured for the molecule COc1cccc(F)c1CNc1ccc(-c2ccc(C(=O)N(C)C)nc2)c2nncn12 turned out to be 6.3

The value of IC50 measured for the molecule COc1cccc(F)c1CNc1ccc(-c2cnn(C3CCNCC3)c2)c2nncn12 turned out to be 15.9

The value of IC50 measured for the molecule COc1cccc(F)c1CNc1ccc(-c2ccccc2CO)c2nncn12 turned out to be 85.3

The value of IC50 measured for the molecule COc1cccc(F)c1CNc1ccc(-c2cnccc2C(F)(F)F)c2nncn12 turned out to be 318

The value of IC50 measured for the molecule COc1cccc(F)c1CNc1ccc(-c2ccc(N3CCCC3=O)nc2)c2nncn12 turned out to be 55

The value of IC50 measured for the molecule COc1cccc(F)c1CNc1ccc(-c2ccnn2C2CC2)c2nncn12 turned out to be 11.4

The value of IC50 measured for the molecule COc1cccc(F)c1CNc1ccc(-c2cnc(S(C)(=O)=O)cc2C(F)F)c2nncn12 turned out to be 6.4

The value of IC50 measured for the molecule COc1cccc(F)c1CNc1ccc(-c2cc(C(F)(F)F)ncc2C)c2nncn12 turned out to be 16.9

---

Could you please report measured pIC50 for the items listed next?
Molecular target: EED (1-441)-His protein (Homo sapiens, UniProt O75530)
Construct: 30 nM EED (1-441)-His protein
Test: EED-H3K27Me3 peptide competition binding assay by AlphaScreen
Conditions: read-out: (a) IC50, EED Alphascreen binding Qualified
Experimental: EED-H3K27Me3 Peptide Competition Binding Assay by AlphaScreen (α-Screen) To assess the compounds' potency in the EED-H3K27Me3 competition binding assay, compounds were serially diluted 3-fold in DMSO to obtain a total of twelve concentrations. Then compounds at each concentration (75 nL of each) were transferred by Mosquito into a 384-well Perkin Elmer ProxiPlate 384 plus plates. […]
// returns pIC50 (minus log10 of molar concentration), number only

The value of pIC50 measured for the compound COc1ccc(F)c(CNc2ccc(-c3ccc(S(C)(=O)=O)nc3)c3nncn23)c1 [Example 122] turned out to be 6.50

The value of pIC50 measured for the compound COc1cccc(F)c1CNc1ccc(-c2cnc(S(C)(=O)=O)c(C)c2)c2nncn12 [Example 160] turned out to be 7.80

The value of pIC50 measured for the compound COc1cccc(F)c1CNc1ccc(-c2cccc(S(C)(=O)=O)c2)c2nncn12 [Example 142] turned out to be 7.87

The value of pIC50 measured for the compound COc1cc(F)ccc1CNc1ccc(-c2ccc(S(=O)(=O)C3CCN(C)CC3)cc2)c2nncn12 [Example 153] turned out to be 6.77

The value of pIC50 measured for the compound CN(C)Cc1ccc(-c2ccc(NCc3ccccc3)n3cnnc23)cc1 [Example 17] turned out to be 6.63

The value of pIC50 measured for the compound COc1cccc(F)c1CNc1ccc(-c2cnc(N3CCN(C(C)C)CC3)c(C(F)(F)F)c2)c2nncn12 [Example 108] turned out to be 7.15

The value of pIC50 measured for the compound COc1cccc(F)c1CNc1ccc(-c2cccnc2)c2nncn12 [Example 114] turned out to be 7.80

The value of pIC50 measured for the compound COc1ccccc1CNc1ccc(-c2ccc(S(=O)(=O)C3CCN(C)CC3)cc2)c2nncn12 [Example 128] turned out to be 7.48

The value of pIC50 measured for the compound COc1cccc(F)c1CNc1ccc(-c2cnc(CC(C)C)nc2C)c2nncn12 [Example 4] turned out to be 8.07

The value of pIC50 measured for the compound COc1cccc(F)c1CNc1ccc(-c2cnc(C)nc2)c2nncn12 [Example 161] turned out to be 7.31

The value of pIC50 measured for the compound COc1ccc(F)cc1CNc1ccc(-c2ccncc2)c2nncn12 [Example 117] turned out to be 6.07

The value of pIC50 measured for the compound COc1cccc(F)c1CNc1ccc(-c2ccc(C)nc2)c2nncn12 [Example 164] turned out to be 7.48

The value of pIC50 measured for the compound COc1cc(CNc2ccc(-c3ccc(CN(C)C)cc3)c3nncn23)ccc1F [Example 156] turned out to be 5.87

The value of pIC50 measured for the compound COc1cc(F)ccc1CNc1ccc(-c2ccc(CN(C)C)cc2)c2nncn12 [Example 33] turned out to be 7.07

The value of pIC50 measured for the compound COc1ccccc1CNc1ccc(-c2ccc(NS(C)(=O)=O)cc2)c2nncn12 [Example 82] turned out to be 7.10

The value of pIC50 measured for the compound COc1ccccc1CNc1ccc(-c2ccc(N3CCN(C)CC3)cc2)c2nncn12 [Example 22] turned out to be 7.25

The value of pIC50 measured for the compound COc1ccccc1CNc1ccc(-c2ccc(CCN(C)C)cc2)c2nncn12 [Example 123] turned out to be 7.38

The value of pIC50 measured for the compound COc1cccc(F)c1CNc1ccc(-c2cccnc2C)c2nncn12 [Example 2] turned out to be 7.96
